- System: BaF3
- PROCEDURE SUMMARY: Antiproliferative activity against mouse BaF3 cells stably expressing KIF5B-RET G810C mutant incubated for 72 hrs by CCK8 assay
- Format: functional, cell-based
- PROTOCOL CONDITIONS: BaF3, 72 h
pIC50: −log10 of the molar value.
METRIC: pIC50

1) COc1ccc(CN2C3CC2CN(c2ccc(-c4cc(N5CCC(N6CCNCC6)CC5)cn5ncc(C#N)c45)cn2)C3)cn1 ... 6.81

A: COc1ccc(CN2C3CC2CN(c2ccc(-c4cc(N5CCC(N6CCN(C(=O)CNc7ccc8c(c7)C(=O)N(C7CCC(=O)NC7=O)C8=O)CC6)CC5)cn5ncc(C#N)c45)cn2)C3)cn1 (stereo not drawn)
B: COc1ccc(CN2C3CC2CN(c2ccc(-c4cc(OCC(C)(C)O)cn5ncc(C#N)c45)cn2)C3)cn1 [SELPERCATINIB]
-- ask So which one has the bigger pIC50 here, A or B ? # respond with the chosen item's label
-- reply A
